Exercise: for every item that follows, state its recorded GFP signal change (wild-type ribosome).
# PROTOCOL_SUMMARY: GFP drop in mixed WT/humanized-ribosome E. coli culture – GFP/RFP fluorescence, OD600, single point, bacterial rRNA inhibitor project, primary screen (AID 720706)
# REPORTED_CONDITIONS: E. coli WT GFP vs humanized-ribosome RFP mutants, 24 h; stronger effect = lower value, DMSO median 0, no signal -100
Screen size: about 350,000 compounds; about 5,500 (1.6%) were called active. Many of the other results were omitted from the sample, so actives are more common in it than they were.

COc1ccc(NC(=O)CSc2nc(SC)ns2)c(OC)c1; -4.47% (inactive)
Clc1ccc(C[n+]2cc(-c3ccccc3)n3c2CCC3)cc1; 2.79% (inactive)
Clc1ccc(C[n+]2cc(-c3ccc(Cl)cc3)n3c2CCC3)cc1; -41.8% (inactive)
S=C(c1ccc(-c2ccccc2)o1)N1CCCCC1; -28.2% (active)
COc1ccccc1N1CCN(C(=O)c2cc3c(-c4ccc(Cl)cc4)nn(C)c3s2)CC1; 0.925% (inactive)

Here are 5 compounds. What values of GFP signal change (wild-type ribosome) were reported for them?
1. Cc1ccc(-c2c[n+](CC(=O)Nc3ccccc3)c3n2CCC3)cc1
2. O=C(Nc1cccc(Cl)c1)N1C[C@@H]2[C@H](c3ccccc31)[C@H](CO)N2C(=O)C1CC1
3. Cc1cc([N+](=O)[O-])ccc1NS(=O)(=O)c1ccccc1
4. CCCN(C)C[C@@H]1Oc2ncc(-c3ccccc3F)cc2C(=O)N([C@@H](C)CO)C[C@@H]1C
5. O=C(CSc1nnc(-c2ccco2)n1Cc1ccccc1)NC(=O)NCc1ccco1

a:
1. -22.1% (active)
2. -55.8% (inactive)
3. -10.6% (inactive)
4. 9.44% (inactive)
5. -20.4% (active)

----------
# PROTOCOL_SUMMARY: GFP drop in mixed WT/humanized-ribosome E. coli culture – GFP/RFP fluorescence, OD600, single point, bacterial rRNA inhibitor project, primary screen (AID 720706)
# REPORTED_CONDITIONS: E. coli WT GFP vs humanized-ribosome RFP mutants, 24 h, DMSO median 0, no signal -100
In all, about 350,000 compounds went through this assay and about 5,500 (1.6%) were called active.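 The calls were made as follows: active = significant combined selectivity score with lowered wild-type GFP, culture density cut under 30%, mutant RFP and density less affected; inactive = any of these conditions unmet.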 This excerpt belongs to a sample that is enriched for actives.
Thanks in advance; please answer with one of these: yes for active, no for inactive

Consider the worked cases shown below.
CNC[C@H]1OCCCC[C@@H](C)Oc2ccc(NS(=O)(=O)c3ccc(F)cc3)cc2C(=O)N([C@H](C)CO)C[C@H]1C; no
C[C@@H]1CN([C@H](C)CO)C(=O)c2cc(C#CCN(C)C)cnc2O[C@H]1CN(C)C(=O)NC1CCCC1; no

q: For CCOC(=O)c1c(N)sc2c1CCCC2=O , what call appears in the results of this test?
a: no

q: For O=C(Cn1cc(/C=N/NC(=O)c2cccc(C(F)(F)F)c2)c2ccccc21)Nc1ccc(F)cc1 , what call appears in the results of this test?
a: no

----------
Exercise: for every item that follows, state its recorded RFP signal change.
# PROTOCOL_SUMMARY: GFP drop in mixed WT/humanized-ribosome E. coli culture – GFP/RFP fluorescence, OD600, single point, bacterial rRNA inhibitor project, primary screen (AID 720706)
# REPORTED_CONDITIONS: E. coli WT GFP vs humanized-ribosome RFP mutants, 24 h; measured here: RFP humanized mutant strains, DMSO median 0, no signal -100, concentration not given here
The campaign covered roughly 350,000 compounds. About 5,500 (1.6%) were called active. The list comes from a sample in which actives are over-represented; it also holds close analogues and randomly drawn compounds.
Answers are plain numbers, in %.

CCCn1c(NC(=O)C23CC4CC(CC(O)(C4)C2)C3)nc2ccccc21; 3.93

Here are 4 compounds. What values of RFP signal change were reported for them?
1. C[C@@H]1CN([C@@H](C)CO)C(=O)c2cccc(N(C)C)c2O[C@@H]1CN(C)S(C)(=O)=O
2. CCn1c(NC(=O)c2nn(C)cc2Br)nc2ccccc21
3. CCCCn1c(-c2cccc(C)c2)nc2cc3[nH]c(=O)c(C(C)C)nc3cc21
4. CCCCCn1nnnc1C1c2ccccc2C(=O)N1Cc1ccco1 (stereo not given)

a:
1. 1.6
2. 6.47
3. 13.5
4. -0.015

----------
# PROTOCOL_SUMMARY: GFP drop in mixed WT/humanized-ribosome E. coli culture – GFP/RFP fluorescence, OD600, single point, bacterial rRNA inhibitor project, primary screen (AID 720706)
# REPORTED_CONDITIONS: E. coli WT GFP vs humanized-ribosome RFP mutants, 24 h; measured here: RFP humanized mutant strains, DMSO median 0, no signal -100, concentration not given here
Hit rate of the full screen: of about 350,000 compounds, about 5,500 (1.6%) were called active. Many of the other results were omitted from the sample, so actives are more common in it than they were.
Exercise: for every item that follows, state its recorded RFP signal change.
The answer consists of two parts: a number and, after it, its unit.

COc1cccc(NC(=O)C2CCCN(c3ncnc4c3nc3n4CCCCC3)C2)c1 (stereo unspecified); -2.84%
COc1cc(NC(=S)NCc2ccco2)c(OC)cc1Cl; 1.65%
COc1cccc(CN(C)C[C@H]2OCc3ccccc3-c3c(n(C)c4ccccc34)C(=O)N([C@@H](C)CO)C[C@@H]2C)c1; 18.9%
FC(F)Oc1ccc(NC(=S)NCc2ccco2)cc1Cl; 5.68%
COc1cccc(CNC(=O)C2CCCN(c3ncnc4c3nc3n4CCCCC3)C2)c1 (stereo unspecified); -0.866%

q: Tell us which RFP signal change value is on record for S=C(NCc1ccco1)Nc1ccc2c(c1)OCCO2
a: -0.482%

----------
# PROTOCOL_SUMMARY: GFP drop in mixed WT/humanized-ribosome E. coli culture – GFP/RFP fluorescence, OD600, single point, bacterial rRNA inhibitor project, primary screen (AID 720706)
# REPORTED_CONDITIONS: E. coli WT GFP vs humanized-ribosome RFP mutants, 24 h; stronger effect = lower value, DMSO median 0, no signal -100
About 5,500 (1.6%) of roughly 350,000 compounds were called active. Many of the other results were omitted from the sample, so actives are more common in it than they were.
Exercise: for every item that follows, state its recorded GFP signal change (wild-type ribosome).
Give bare numbers, in %.

Past entries and their recorded results:
Cc1ccc(S(=O)(=O)Nc2ccc3c(c2)C(=O)N([C@@H](C)CO)C[C@H](C)[C@@H](CN(C)S(=O)(=O)c2ccc(C)cc2)O3)cc1; 0.928
CCC(=O)Nc1ccc2c(c1)C(=O)N(C)[C@H]1CC[C@H](CC(=O)NCC3CCCCC3)O[C@H]1CO2; -0.704
CC(=O)N1N=C(c2ccncc2)OC1(Cc1ccccc1)Cc1ccccc1; -37.5
COc1ccc(NC(=O)N(C)C[C@@H]2Oc3ccc(NS(=O)(=O)c4ccc(C)cc4)cc3CC(=O)N([C@@H](C)CO)C[C@H]2C)cc1; 0.124
C[C@H]1CN([C@@H](C)CO)C(=O)c2cc(NS(C)(=O)=O)ccc2O[C@@H]1CN(C)S(=O)(=O)c1ccc(Cl)cc1; 2.05

Here are 4 compounds. What values of GFP signal change (wild-type ribosome) were reported for them?
1. O=C(c1cccs1)N(Cc1cc2ccccc2[nH]c1=O)CC1CCCO1 (centres undefined)
2. O=C(Cc1ccccc1)N1N=C(c2ccncc2)CC1(O)C(F)(F)F (centres undefined)
3. COc1cc(C(=O)NCC(=O)N2CC=C(c3ccccc3)CC2)cc(OC)c1OC
4. CCn1c(CNC(=O)c2cc(OC)c(OC)c(OC)c2)cc2cc(C)ccc21

a:
1: -0.275; 2: 7.85; 3: -28.4; 4: 15.4

----------
# PROTOCOL_SUMMARY: GFP drop in mixed WT/humanized-ribosome E. coli culture – GFP/RFP fluorescence, OD600, single point, bacterial rRNA inhibitor project, primary screen (AID 720706)
# REPORTED_CONDITIONS: E. coli WT GFP vs humanized-ribosome RFP mutants, 24 h; measured here: RFP humanized mutant strains, DMSO median 0, no signal -100, concentration not given here
Among all 350,000 compounds or so, about 5,500 (1.6%) were called active. This is one part of a sample in which actives are shown more often than they occur.
Exercise: for every item that follows, state its recorded RFP signal change.
Numbers only, in %.

Past entries and their recorded results:
O=C(C(=O)N1CCC(CNS(=O)(=O)Cc2ccccc2)CC1)c1cc2ccccc2o1; 2.73
COc1ccc(C(=O)CC(=O)c2ccc(C)cc2)c(O)c1; -24.9
CCn1c(C)c(C)c2cc(C(=O)N3CCN(c4cccc(C)c4C)CC3)ccc21; 8.15
C[C@@H]1CN([C@H](C)CO)S(=O)(=O)c2ccc(-c3ccccc3)cc2O[C@@H]1CN(C)C(=O)CC1CC1; 1.01
O=[N+]([O-])c1cc(Br)c(O)c(/C=N/Nc2nc3ccccc3s2)c1; 3.75
O=C(CC1CC1)N1[C@@H](CO)[C@@H](c2ccccc2)C12CN(S(=O)(=O)c1ccccc1)C2; 4.17

Here are 5 compounds. What values of RFP signal change were reported for them?
1. Cc1ccccc1-c1cnc2c(c1)C(=O)N([C@H](C)CO)C[C@H](C)[C@@H](CN(C)C(=O)c1ccccc1)O2
2. COC(=O)c1cc(OC)ccc1-c1ccc(OC)cc1
3. Cc1noc(C)c1NC(=O)N(C)C[C@H]1OCCCC[C@@H](C)Oc2ccc(NC(=O)NC(C)C)cc2C(=O)N([C@@H](C)CO)C[C@H]1C
4. CN(c1ccccc1)S(=O)(=O)c1ccc(C(=O)NCc2cccnc2)cc1
5. Cc1cccc(NS(=O)(=O)c2ccc(C)c(C(=O)NCC(c3ccccc3)N(C)C)c2)c1 (stereo not drawn)

a:
[1.42, -6.08, -1.31, 0.05, 2.06]

Here are 6 compounds. What values of RFP signal change were reported for them?
1. CO[C@@H]1CN(C)C(=O)c2ccc(NC(=O)C3CC3)cc2OC[C@H](C)N(C(C)=O)C[C@H]1C
2. COc1ccc(SSc2ccc(OC)cc2C(=O)O)c(C(=O)O)c1
3. C[C@@H]1CN([C@H](C)CO)C(=O)Cc2cc(N(C)C)ccc2O[C@H]1CN(C)C(=O)NC1CCCCC1
4. COc1cccc(CN(C)CC(=O)NCc2ccccc2Cl)c1OC
5. COc1ccc(NC(=O)CN(C)C(=O)c2cc(C3CC3)nn2-c2ccccc2)cc1
6. COc1ccc(NC(=O)N(C)C[C@H]2OCCCC[C@H](C)Oc3ccc(NC(=O)NC4CCCCC4)cc3C(=O)N([C@@H](C)CO)C[C@@H]2C)cc1

a:
[-2.71, -2.19, -1.29, 1.05, 5.24, 2.63]

This collection of values is drawn from PubChem BioAssay AID720706.
